Data origin: PubChem BioAssay (EPA / NIEHS)

Assay: ATG_SREBP_CIS: Attagene CIS-FACTORIAL HepG2 Assay for human Sterol Regulatory Element Binding (SREBP) (AID 2282962)
Settings: HepG2 Attagene cis-factorial SREBP reporter, mRNA; actives raise or lower the signal
Active and inactive are the calls of the source. The calls were made as follows: active = hit-call score of the fitted dose curve at least 0.9, where 1 is the maximum; inactive = score below 0.9.
propertyMeasured: outcome

C=CN1CCCCCC1=O
inactive
Cc1cc2nc3c(=O)[nH]c(=O)nc-3n(C[C@H](O)[C@H](O)[C@H](O)CO)c2cc1C
inactive
CC(=O)c1nccs1
inactive
O=C(O)c1ccccc1C(=O)O
inactive
COc1c2occc2cc2ccc(=O)oc12
inactive

I would be grateful if you could provide outcome for each of the following entries.
1. Clc1ccccn1
2. CC(C)(C)NC(=O)[C@@H]1CN(Cc2cccnc2)CCN1C[C@@H](O)C[C@@H](Cc1ccccc1)C(=O)N[C@H]1c2ccccc2C[C@H]1O
3. O=C(C1CCCCC1)N1CC(=O)N2CCc3ccccc3C2C1 (stereo not drawn)

// result
inactive
inactive
inactive

----------
Tested on: Thyroperoxidase (TPO), gene 54314
Assay: CCTE_Simmons_AUR_rTPO: CCTE's Amplex UltraRed Assay for Thyroperoxidase (TPO) Inhibition, Simmons Lab (AID 2283662)
Activity calls are given as the source filed them. How the source made its calls: active means hit-call score of the fitted dose curve at least 0.9, where 1 is the maximum; inconclusive means response in the unintended direction; inactive means score below 0.9.
Choose the fitting class; nothing outside active, inactive is accepted.

Cc1c(N(C)CS(=O)(=O)O)c(=O)n(-c2ccccc2)n1C
active

We now examine a further compound.
// query I would be grateful if you could indicate the recorded call for CCCCC(CC)COC(=O)C=Cc1ccc(OC)cc1 (configuration not stated) .
// result inactive

----------
Molecular target: Cellular tumor antigen p53 (Homo sapiens)
Assay: TOX21_p53_BLA_p4_ratio: Tox21 HCT-116 p53 Agonism Beta-lactamase Assay, Ratio, Phase 4 (AID 2283601)
Records with an inconclusive call do not appear. Active and inactive are the calls of the source. Rule for the calls: active = hit-call score of the fitted dose curve at least 0.9, where 1 is the maximum; inconclusive = response in the unintended direction; inactive = score below 0.9.
Choose the fitting class; nothing outside active, inactive is accepted.

CN=C(NC#N)NCCSCc1csc(N=C(N)N)n1
inactive
C/C=C1\NC(=O)[C@H]2CSSCC/C=C/[C@H](CC(=O)N[C@H](C(C)C)C(=O)N2)OC(=O)C(C(C)C)NC1=O (stereo partly specified)
active
CC(C)(C)CC(C)(C)c1ccc(O)c(Cc2ccc(Cl)cc2Cl)c1
inactive

We now examine a further molecule.
// query I would be grateful if you could indicate the recorded call for CC(C)CCCC(C)N (stereo unspecified) .
// result inactive

----------
Experiment: TOX21_p53_BLA_p4_viability: Viability Assessment in the Tox21 HCT-116 p53 Agonism Beta-lactamase Assay, Phase 4 (AID 2283597);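 also: hits lower the luminescence signal meaning cytotoxicity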
Results filed as inconclusive are left out. Activity calls are given as the source filed them. How the source made its calls: active means hit-call score of the fitted dose curve at least 0.9, where 1 is the maximum; inconclusive means response in the unintended direction; inactive means score below 0.9.
propertyMeasured: AC50

# annotated cases, reported AC50 shown
CCCCN1C=CN(C)C1
inactive
N[C@@H](C(=O)N[C@@H]1C(=O)N2C(C(=O)O)=C(CSc3cn[nH]n3)CS[C@H]12)c1ccc(O)cc1
inactive
Cc1nc2ccccc2n1Cc1ccc(Cl)cc1
inactive
CCCCCCCCCCCCCCCC[N+](C)(C)CCN(Cc1ccc(OC)cc1)c1ncccn1
17.3 µM (active)
c1ccc(C(O[C@H]2CCCN(CCc3ccc4c(c3)OCO4)C2)c2ccccc2)cc1
inactive
CN1C(=O)OC(C)(C)C1=O
inactive

I would be grateful if you could provide AC50 for each of the following entries.
1. NC(N)=NN=Cc1c(Cl)cccc1Cl
2. Oc1ccc(C2(c3ccc(O)cc3)CC3CC2C2CCCC32)cc1 (stereo unspecified)
3. CCN(CC)CCNC(=O)c1c(C)[nH]c(/C=C2\C(=O)Nc3ccc(F)cc32)c1C
4. CCCCCCCCS(=O)(=O)Cl
5. Cc1cccc(C)c1NC(=O)CN1CCN(CCCC(c2ccc(F)cc2)c2ccc(F)cc2)CC1

// result
["inactive", "55.4 µM (active)", "17.7 µM (active)", "inactive", "inactive"]

I would be grateful if you could provide AC50 for each of the following entries.
1. CC(C)[C@H](N)C(=O)OCCOCn1cnc2c(=O)[nH]c(N)nc21
2. C=CCOC(=O)C(=C)C
3. C[N+]1(C)[C@@H]2CC(OC(=O)C(O)(c3cccs3)c3cccs3)C[C@H]1[C@@H]1O[C@@H]12 (stereo partly specified)
4. CCN1CC(CCN2CCOCC2)C(c2ccccc2)(c2ccccc2)C1=O (stereo unspecified)
5. CC(O)CN(C)C (stereo unspecified)
6. CCCCC(=O)O[C@]1(C(=O)CO)[C@H](C)C[C@H]2[C@@H]3CCC4=CC(=O)C=C[C@]4(C)[C@@]3(F)[C@@H](O)C[C@@]21C
7. CC(O)[C@@H]1NC(=O)[C@H](CCCCN)NC(=O)[C@@H](Cc2c[nH]c3ccccc23)NC(=O)[C@H](Cc2ccccc2)NC(=O)[C@@H](NC(=O)[C@H](N)Cc2ccccc2)CSSC[C@@H](C(=O)N[C@H](CO)[C@@H](C)O)NC1=O (stereo partly specified)

// result
1: inactive; 2: inactive; 3: inactive; 4: inactive; 5: inactive; 6: inactive; 7: inactive

I would be grateful if you could provide AC50 for each of the following entries.
1. O=c1[nH]c2cc(C(F)(F)F)c(N3CCOCC3)cc2n(CP(=O)(O)O)c1=O
2. N#CCC(=O)NN
3. COc1ccc(/C=C/C(=O)Nc2ccccc2C(=O)O)cc1OC

// result
inactive
inactive
inactive

----------
Assay: TOX21_p53_BLA_p4_viability: Viability Assessment in the Tox21 HCT-116 p53 Agonism Beta-lactamase Assay, Phase 4 (AID 2283597);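 also: hits lower the luminescence signal meaning cytotoxicity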
Results filed as inconclusive are left out. Calls of active or inactive are those of the source. How the source made its calls: active means hit-call score of the fitted dose curve at least 0.9, where 1 is the maximum; inconclusive means response in the unintended direction; inactive means score below 0.9.
Choose the fitting class; nothing outside active, inactive is accepted.

COc1ccc(CCN(C)CCCC(C#N)(c2cc(OC)c(OC)c(OC)c2)C(C)C)cc1OC (centres undefined)
inactive
CC(=O)N[C@@H](CCC(N)=O)C(=O)O
inactive
Nc1ccc2c3c(cccc13)-c1ccccc1-2
inactive
CC[C@@H]([C@H](C)O)n1ncn(-c2ccc(N3CCN(c4ccc(OC[C@@H]5CO[C@@](Cn6cncn6)(c6ccc(F)cc6F)C5)cc4)CC3)cc2)c1=O
active
CCOc1ccc(NC(=O)OC(C)C)cc1OCC
inactive

// query I would be grateful if you could indicate the recorded call for CCSc1ccc2c(c1)N(CCCN1CCN(C)CC1)c1ccccc1S2 .
// result inactive

// query I would be grateful if you could indicate the recorded call for CC(C)=CCC1=C(O)c2ccccc2C(=O)C1=O .
// result inactive

// query I would be grateful if you could indicate the recorded call for CCOC(=O)COc1ccc(C)cc1 .
// result inactive

// query I would be grateful if you could indicate the recorded call for COC(=O)C1=C(C)NC(C)=C(C(=O)OCC(C)=O)C1c1ccccc1[N+](=O)[O-] (centres undefined) .
// result inactive

// query I would be grateful if you could indicate the recorded call for C[C@@H](O)[C@H]1C(=O)N2C(C(=O)O)=C(SCCN=CN)C[C@H]12 .
// result inactive

// query I would be grateful if you could indicate the recorded call for CCOc1ccc2nc(N)sc2c1 .
// result inactive

// query I would be grateful if you could indicate the recorded call for CCCCCCCCCOC(=O)c1ccc(O)cc1 .
// result active

// query I would be grateful if you could indicate the recorded call for c1cc(OCC2CO2)cc(OCC2CO2)c1 (centres undefined) .
// result inactive

// query I would be grateful if you could indicate the recorded call for CC(C)=CCC/C(C)=C/CC/C(C)=C/CCC(=O)OC/C=C(\C)CCC=C(C)C .
// result inactive

// query I would be grateful if you could indicate the recorded call for O=C(CCCCCCCCCCCCC1CCCC1)Nc1ccc(S(=O)(=O)c2ccc(NC(=O)CCCCCCCCCCCCC3CCCC3)cc2)cc1 .
// result inactive

// query I would be grateful if you could indicate the recorded call for CCCN1C[C@H](CSC)C[C@@H]2c3cccc4[nH]cc(c34)C[C@H]21 .
// result inactive

// query I would be grateful if you could indicate the recorded call for CC(CCl)OC(C)CCl (centres undefined) .
// result inactive

// query I would be grateful if you could indicate the recorded call for Cc1cccc2sc(N)nc12 .
// result inactive

// query I would be grateful if you could indicate the recorded call for Cc1cc(C)c(N)c(Cl)c1 .
// result inactive

----------
Experiment: BSK_SAg_PBMCCytotoxicity: PBMC Cytotoxicity Assessment in the BioMAP Diversity Plus: SAg Assay (AID 2283093);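 also: PBMC viability measured as Alamar Blue reduction fluorescence at 546/580 nm; fitted both ways against DMSO so a hit may be loss or gain of signal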;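 as to AC50: PBMC superantigen activated with SEB plus TSST-1 one hour after compound addition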
Conditions: primary human HUVEC with PBMC
Activity calls are given as the source filed them. The calls were made as follows: active = hit-call score of the fitted dose curve at least 0.9, where 1 is the maximum; inactive = score below 0.9.
propertyMeasured: AC50

COC(=O)/C=C\C(=O)OC
inactive
CCCCCCC(O)CCCCCCCCCCC(=O)OC (stereo not drawn)
inactive
O=C(C(=O)c1ccccc1)c1ccccc1
inactive
CC[N+](CC)(CC(=O)Nc1c(C)cccc1C)Cc1ccccc1 (tested in a mixture with another compound)
inactive
CCCCCCCCCC/C=C/C1CC(=O)OC1=O (stereo not drawn)
inactive

I would be grateful if you could provide AC50 for each of the following entries.
1. CCCCCCCCCCCCCCCCCC[N+](C)(C)C
2. Cc1c(C(N)=O)cc([N+](=O)[O-])cc1[N+](=O)[O-]

// result
3.16 µM (active)
inactive

I would be grateful if you could provide AC50 for each of the following entries.
1. CCC(C)=NO
2. CN(C)c1ccc(C(c2ccccc2)c2ccc(N(C)C)cc2)cc1
3. Cc1cc(-n2nc3ccc(Cl)cc3n2)c(O)c(C(C)(C)C)c1
4. COc1cc(CNC(=O)CCCC/C=C/C(C)C)ccc1O
5. CC[N+](CC)(CC(=O)Nc1c(C)cccc1C)Cc1ccccc1
6. C1CN(CCOCCN2CCOCC2)CCO1

// result
inactive
inactive
inactive
inactive
inactive
inactive
